B1: ZNF263 (parent)
chain: QRTHTGEKPYKCPECGEIFAHSSN

variants of: B1; assay: protein stability index of a GFP-peptide fusion (GPS, HEK-293T) (PSI 1-6); higher = more stable; conditions: c terminus: a fixed tail appended;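 also: lentivirally expressed fusions sorted by FACS into six bins by GFP to DsRed ratio, PSI derived from sequencing read proportions per bin multiplied by bin number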
Classification field: enter fulfilled for protein stability index values not below 3, not fulfilled for values below it.

input: Determine whether measured protein stability index meets or exceeds 3 for `E14P`
output: fulfilled

input: Determine whether measured protein stability index meets or exceeds 3 for `I18S`
output: not fulfilled

input: Determine whether measured protein stability index meets or exceeds 3 for `F19Y`
output: fulfilled

input: Determine whether measured protein stability index meets or exceeds 3 for `A20L`
output: not fulfilled

input: Determine whether measured protein stability index meets or exceeds 3 for `S23L`
output: not fulfilled

input: Determine whether measured protein stability index meets or exceeds 3 for `S22L`
output: not fulfilled

input: Determine whether measured protein stability index meets or exceeds 3 for `Y10A`
output: fulfilled

input: Determine whether measured protein stability index meets or exceeds 3 for `P13F`
output: not fulfilled

input: Determine whether measured protein stability index meets or exceeds 3 for `G6S`
output: fulfilled

input: Determine whether measured protein stability index meets or exceeds 3 for `P13W`
output: not fulfilled

input: Determine whether measured protein stability index meets or exceeds 3 for `E7H`
output: fulfilled

input: Determine whether measured protein stability index meets or exceeds 3 for `E7I`
output: not fulfilled

input: Determine whether measured protein stability index meets or exceeds 3 for `K8Q`
output: fulfilled

input: Determine whether measured protein stability index meets or exceeds 3 for `Y10W`
output: fulfilled

input: Determine whether measured protein stability index meets or exceeds 3 for `T5Q`
output: fulfilled

input: Determine whether measured protein stability index meets or exceeds 3 for `G6H`
output: fulfilled

input: Determine whether measured protein stability index meets or exceeds 3 for `K8T`
output: fulfilled

input: Determine whether measured protein stability index meets or exceeds 3 for `C15A`
output: fulfilled

input: Determine whether measured protein stability index meets or exceeds 3 for `G6E`
output: fulfilled

input: Determine whether measured protein stability index meets or exceeds 3 for `R2S`
output: fulfilled

input: Determine whether measured protein stability index meets or exceeds 3 for `S23G`
output: fulfilled

input: Determine whether measured protein stability index meets or exceeds 3 for `K8R`
output: fulfilled

input: Determine whether measured protein stability index meets or exceeds 3 for `H4R`
output: fulfilled

input: Determine whether measured protein stability index meets or exceeds 3 for `N24W`
output: not fulfilled

input: Determine whether measured protein stability index meets or exceeds 3 for `K11D`
output: fulfilled

input: Determine whether measured protein stability index meets or exceeds 3 for `F19V`
output: fulfilled

input: Determine whether measured protein stability index meets or exceeds 3 for `N24V`
output: not fulfilled

input: Determine whether measured protein stability index meets or exceeds 3 for `F19R`
output: fulfilled

input: Determine whether measured protein stability index meets or exceeds 3 for `E14W`
output: not fulfilled

input: Determine whether measured protein stability index meets or exceeds 3 for `P9R`
output: fulfilled

input: Determine whether measured protein stability index meets or exceeds 3 for `F19W`
output: not fulfilled

input: Determine whether measured protein stability index meets or exceeds 3 for `K11F`
output: fulfilled

input: Determine whether measured protein stability index meets or exceeds 3 for `H21L`
output: not fulfilled

input: Determine whether measured protein stability index meets or exceeds 3 for `G6L`
output: fulfilled

input: Determine whether measured protein stability index meets or exceeds 3 for `R2F`
output: not fulfilled

input: Determine whether measured protein stability index meets or exceeds 3 for `R2V`
output: not fulfilled

input: Determine whether measured protein stability index meets or exceeds 3 for `G16A`
output: fulfilled

input: Determine whether measured protein stability index meets or exceeds 3 for `P13Q`
output: fulfilled

input: Determine whether measured protein stability index meets or exceeds 3 for `S23A`
output: fulfilled

input: Determine whether measured protein stability index meets or exceeds 3 for `P13A`
output: fulfilled

input: Determine whether measured protein stability index meets or exceeds 3 for `G16Q`
output: fulfilled

input: Determine whether measured protein stability index meets or exceeds 3 for `S23V`
output: not fulfilled
